Tested on: hyperlipoidemia model of Goldenhamsters (blood plasma TC, HDL-C, LDL-C)
Assay protocol: Pharmacological test group 2: effects on blood lipid levels of Goldenhamsters in hyperlipoidemia model
Assay type: in vivo
Measurement setup: 40 mg/kg; t test after vs before administration
Parameter: effect on HDL-C, in comparison with the results before administration (in words)

So for "CC(C)OC(=O)C(C)(C)Oc1ccc(C(F)(F)c2ccc(Cl)cc2)cc1" , the logged effect on HDL-C, in comparison with the results before administration (in words) turned out to be increases

So for "Cc1ccccc1C(F)(F)c1ccc(OC(C)(C)C(=O)OC(C)C)cc1" , the logged effect on HDL-C, in comparison with the results before administration (in words) turned out to be significantly increases

So for "CC(C)OC(=O)C(C)(C)Oc1ccc(C(F)(F)c2ccccc2Cl)cc1" , the logged effect on HDL-C, in comparison with the results before administration (in words) turned out to be increases

So for "CC(C)OC(=O)C(C)(C)Oc1ccc(C(F)(F)c2ccc(Cl)cc2)cc1Cl" , the logged effect on HDL-C, in comparison with the results before administration (in words) turned out to be significantly increases
